test system: icSARS-CoV-2-mNG; assay: microbe, parasite or virus in culture; type: cell-based, SARS-CoV-2; details: Severe acute respiratory syndrome coronavirus 2, read-out: IC50 (virus titer by plaque assay)
Give measured IC50 for each item. Keep answers brief.

Example entries begin here.
CC(N)C12CC3CC(CC(C3)C1)C2 (stereo not drawn) [rimantadine]; 12.6 µM
CN(C)CCOCC(=O)NC12CC3CC(CC(C3)C1)C2 [tromantadine]; 88.9 µM

Record NC12CC3CC(CC(C3)C1)C2 [amantadine] / icSARS-CoV-2-mNG, IC50 recorded as 34.6 µM

* * *

tested on: ACE2-A549 cells; conditions: human
ASSAY_ENDPOINT: CC50 (µM)
Answers are plain numbers, in µM.

Record CN(C)CCOCC(=O)NC12CC3CC(CC(C3)C1)C2 / ACE2-A549 cells, CC50 recorded as 305

* * *

system: SARS-CoV-2 WA/01; assay: SARS-CoV-2 WA/01 immunostaining assay in ACE2-A549 cells; format: cell-based; settings: ACE2-A549 cells, MOI 0.1, anti-spike staining, 3 DPI (Figure 2A); read-out: IC50
ASSAY_ENDPOINT: IC50 (nM)
Give bare numbers, in nM.

Entry O=c1nc(NO)ccn1[C@@H]1O[C@H](CO)[C@@H](O)[C@H]1O — recorded IC50 = 360

* * *

Give measured pIC50 for each item. Keep answers brief.
system: icSARS-CoV-2-mNG; test: microbe, parasite or virus in culture; format: cell-based, SARS-CoV-2; details: Severe acute respiratory syndrome coronavirus 2
Give bare numbers, as −log10 of the molar value.

Example entries begin here.
NC12CC3CC(CC(C3)C1)C2; 3.92
CCC(CC)COC(=O)[C@H](C)N[P@](=O)(OC[C@H]1O[C@@](C#N)(c2ccc3c(N)ncnn23)[C@H](O)[C@@H]1O)Oc1ccccc1; 7.10
CC(N)C12CC3CC(CC(C3)C1)C2 (stereo not shown); 4.52

Turning now to a further compound:
Entry CN(C)CCOCC(=O)NC12CC3CC(CC(C3)C1)C2 — recorded pIC50 = 4.01

* * *

Give measured IC50 for each item. Keep answers brief.
system: SARS-CoV-2 WA/01; test: SARS-CoV-2 WA/01 immunostaining assay in ACE2-A549 cells; type: cell-based; details: Severe acute respiratory syndrome coronavirus 2, ACE2-A549 cells, MOI 0.1, anti-spike staining, 3 DPI (Figure 2A)

Could you tell me IC50 for each of these molecules? They are listed below.
1. CCC(CC)COC(=O)[C@H](C)N[P@](=O)(OC[C@H]1O[C@@](C#N)(c2ccc3c(N)ncnn23)[C@H](O)[C@@H]1O)Oc1ccccc1 [remdesivir]
2. CC(N)C12CC3CC(CC(C3)C1)C2 (stereo not shown) [rimantadine]
3. NC12CC3CC(CC(C3)C1)C2 [amantadine]
4. CN(C)CCOCC(=O)NC12CC3CC(CC(C3)C1)C2 [tromantadine]

Result:
1. 0.04 µM
2. 34 µM
3. 136 µM
4. 56 µM

* * *

experiment: in vitro; details: human
Give measured CC50 for each item. Keep answers brief.

Example entries begin here.
CC(N)C12CC3CC(CC(C3)C1)C2 (stereo not drawn) [rimantadine]; ≥ 300 µM
NC12CC3CC(CC(C3)C1)C2 [amantadine]; ≥ 1000 µM

Turning now to a further compound:
Entry CN(C)CCOCC(=O)NC12CC3CC(CC(C3)C1)C2 [tromantadine] — recorded CC50 = 312 µM
